// provenance: PubChem BioAssay (NCI)

System: NCI-H460 lung
PROTOCOL_TEXT: NCI-60 one-dose screen, 48 h
MEASUREMENT_PARAMETERS: 10 µM unless noted
This is part of a sample that, as a whole, favours compounds with a hit. Of some 83,000 tested, about 20% had one in any assay. Active and inactive are the calls of the source. Rule for the calls: active = growth percent below 10; inactive = the rest.
Could you please pick one outcome from this set? active, inactive

COMPOUND	CLASS_LABEL
COC(=O)C(CC(=O)c1ccc(-c2ccccc2)cc1)c1ccccc1 (stereo not given)	inactive

Which outcome was assigned to `CCCCCCCCCCCCNC(=S)N/N=C/c1ccc(Cl)c(Cl)c1` in this test?
inactive

Which outcome was assigned to `O=C(Nc1cccc(Cl)c1)c1cc([N+](=O)[O-])ccc1O` in this test?
inactive

Which outcome was assigned to CC1CCc2c(sc(NC(=O)CSc3nnc4ccccn34)c2C(N)=O)C1 (stereo not given) in this test?
inactive

Which outcome was assigned to `O=C1CCC/C=C\C[C@H]2C=CC(=O)/C2=C/C[C@H](C/C=C\CC(F)(F)F)O1` in this test?
active

Which outcome was assigned to `O=C(Nc1ccc(I)cc1)c1cc([N+](=O)[O-])ccc1O` in this test?
inactive

Which outcome was assigned to `CCO/C=N/NC(=O)c1ccncc1` in this test?
inactive

Which outcome was assigned to CC(=O)Nc1ccc(S(=O)(=O)N2C(=O)CCC2C(=O)Nc2ccc(Br)cc2)cc1 (stereo not given) in this test?
inactive

Which outcome was assigned to `O=c1c2cccc3c(Nc4ccc(F)cc4)ccc(c32)c2nc3ccccc3n12` in this test?
inactive
